measured target: CYP3A4 (Homo sapiens, UniProt P08684)
Sequence (P08684 whole entry): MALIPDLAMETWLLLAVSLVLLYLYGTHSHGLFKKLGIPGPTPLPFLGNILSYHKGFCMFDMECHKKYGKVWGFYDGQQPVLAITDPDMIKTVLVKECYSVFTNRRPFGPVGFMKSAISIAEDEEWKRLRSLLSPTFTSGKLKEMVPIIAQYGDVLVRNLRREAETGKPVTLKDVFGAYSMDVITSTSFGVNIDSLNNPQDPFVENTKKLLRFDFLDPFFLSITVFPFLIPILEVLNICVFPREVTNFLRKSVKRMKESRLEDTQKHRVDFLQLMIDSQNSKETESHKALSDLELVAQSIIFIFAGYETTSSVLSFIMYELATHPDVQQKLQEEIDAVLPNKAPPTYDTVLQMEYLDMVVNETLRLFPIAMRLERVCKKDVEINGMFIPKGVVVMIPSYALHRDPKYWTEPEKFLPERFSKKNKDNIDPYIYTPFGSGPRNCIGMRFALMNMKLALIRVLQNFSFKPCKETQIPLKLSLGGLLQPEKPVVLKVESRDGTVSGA
assay procedure: Inhibition of CYP3A4 in human liver microsomes using midazolam as substrate
stated conditions: probe midazolam
measured parameter: pKi
Units for pKi: none; it is -log10 of a concentration expressed in mol/L.

QUERY: Look up pKi for this molecule: COc1c(N2CC[C@@H](C3(N)CC3)C2)ccc2c(=O)c(C(=O)O)cn([C@@H]3C[C@@H]3F)c12
RESULT: 4.17
